assay: Inhibition of PKD1 (unknown origin)
Measured Endpoint: pIC50
Keep in mind that pIC50 stands for -log10 of concentration in molar terms.

Dear colleague, I am looking for the recorded pIC50 of the following compound: CN1C(=O)[C@](O)(C#Cc2cccc(-n3nc(C(N)=O)c4cccnc43)c2)[C@H]2C[C@H]21
6.68
